Attribution: patent US5602101A

For each entry below, report its Enzyme Kass, Trypsin value.
- system.name: Bovine trypsin (Bos taurus)
- Construct: Bovine trypsin is purchased from Worthington Biochemicals, Freehold, N.J; purchased Worthington Biochemicals, Freehold, N.J
- Sequence (P00760 24-246): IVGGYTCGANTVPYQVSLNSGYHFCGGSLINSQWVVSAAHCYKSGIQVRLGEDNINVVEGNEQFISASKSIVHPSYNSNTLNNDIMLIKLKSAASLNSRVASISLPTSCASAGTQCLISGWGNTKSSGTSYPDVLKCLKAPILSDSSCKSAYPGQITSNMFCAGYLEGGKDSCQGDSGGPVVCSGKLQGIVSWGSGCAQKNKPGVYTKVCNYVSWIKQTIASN
- assay.explanation: Serine protease inhibition, trypsin (chromogenic substrate), Kass
- Assay type: biochemical
- conditions: substrate N-Benzoyl-Phe-Val-Arg-p-nitroanilide
Non-standard residues stand in square brackets, D forms with d. Residues, ends and D or L forms follow the SMILES beside them. dNMeCha = CN[C@H](CC1CCCCC1)C(=O)O
Respond numerically; units are L/mol × 10^6 and should not be typed.

Record for Cc1noc(C)c1S(=O)(=O)N[C@H](Cc1ccccc1)C(=O)N1CCC[C@H]1C(=O)N[C@H](C=O)CCCNC(=N)N.Cl under target or system Bovine trypsin (Bos taurus): Enzyme Kass, Trypsin reported as 200

# Enzyme Kass, Trypsin measured on Bovine trypsin (Bos taurus) for item Cl.N=C(N)NCCC[C@@H](C=O)NC(=O)[C@@H]1CCCN1C(=O)[C@@H](Cc1ccccc1)NC(=O)c1cccnc1 [Example 3, N-Nicotinoyl-D-Phe-Pro-Arg-H.HCl] = 12

Value sought: Enzyme Kass, Trypsin, system Bovine trypsin (Bos taurus), item CCCN(CCC)S(=O)(=O)c1ccc(C(=O)N[C@H](Cc2ccccc2)C(=O)N2CCC[C@H]2C(=O)N[C@H](C=O)CCCNC(=N)N)cc1.Cl . Result: 15

Lab note: molecule CCCCS(=O)(=O)N[C@H](Cc1ccccc1)C(=O)N1CCC[C@H]1C(=O)N[C@H](C=O)CCCNC(=N)N.Cl [Example 10, n-Bu-SO2 -D-Phe-Pro-Arg-H.HCl] tested on Bovine trypsin (Bos taurus); recorded Enzyme Kass, Trypsin was 230

Tested on Bovine trypsin (Bos taurus), the item CCS(=O)(=O)N[C@@H](C(=O)N1CCC[C@H]1C(=O)N[C@H](C=O)CCCNC(=N)N)C1CCCCC1.Cl [Example 22, EtSO2 -D-Chg-Pro-Arg-H.HCl] showed Enzyme Kass, Trypsin equal to 260

Case Cl.N=C(N)NCCC[C@@H](C=O)NC(=O)[C@@H]1CCCN1C(=O)[C@@H](Cc1ccccc1)NS(=O)(=O)c1nccs1 [Example 19, 2-Thiazolyl-SO2 -D-Phe-Pro-Arg-H-HCl] , Bovine trypsin (Bos taurus), Enzyme Kass, Trypsin recorded as 52

Bovine trypsin (Bos taurus) Enzyme Kass, Trypsin of CN[C@H](CC1CCCCC1)C(=O)N1CCC[C@H]1C(=O)N[C@H](C=O)CCCNC(=N)N.Cl [Example 31, Me-D-Cha-Pro-Arg-H.HCl] (H-[dNMeCha]-Pro-Arg-aldehyde) is 160

// Enzyme Kass, Trypsin (Bovine trypsin (Bos taurus)) for CCS(=O)(=O)N[C@H](Cc1ccccc1)C(=O)N1CCC[C@H]1C(=O)N[C@H](C=O)CCCNC(=N)N.Cl [Example 8, EtSO2 -D-Phe-Pro-Arg-H-HCl] = 260

---

Assign Enzyme Kass, Human Thrombin to each entry below.
- system.name: human thrombin (Homo sapiens, UniProt P00734)
- Construct: purified human thrombin Enzyme Research Laboratories, South Bend, Ind; purchased Enzyme Research Laboratories, South Bend, Ind
- assay.explanation: Inhibition of amidase activity of thrombin (chromogenic substrate), Kass
- Format: biochemical
- conditions: substrate N-benzoyl-Phe-Val-Arg-p-nitroanilide, pH 7.4
Express your answer in L/mol × 10^6, writing the number without its unit.

Value of measured Enzyme Kass, Human Thrombin for the entry Cl.N=C(N)NCCC[C@@H](C=O)NC(=O)[C@@H]1CCCN1C(=O)[C@@H](Cc1ccccc1)NS(=O)(=O)c1nccs1 [Example 19, 2-Thiazolyl-SO2 -D-Phe-Pro-Arg-H-HCl] : 68

Enzyme Kass, Human Thrombin for CCS(=O)(=O)N[C@H](CC1CCCCC1)C(=O)N1CCC[C@H]1C(=O)N[C@H](C=O)CCCNC(=N)N.Cl [Example 21, EtSO2 -D-Cha-Pro-Arg-H.HCl] is 550

Entry under test: Cl.NC(N)=NCCCC(C=O)NC(=O)C1CCCN1C(=O)C(Cc1ccccc1)NC(=O)Cc1cccnc1 (stereo not shown) . Its Enzyme Kass, Human Thrombin was 13

Memo: Cl.Cn1c(C(=O)NC(Cc2ccccc2)C(=O)N2CCCC2C(=O)NC(C=O)CCCN=C(N)N)cc2ccccc21 [Example 1, NMI-D-Phe-Pro-Arg-H.HCl] , reported Enzyme Kass, Human Thrombin: 850

---

- assay.explanation: Index of bioavailability (plasma TT AUC, p.o. vs i.v.)
- conditions: rats, adjusted for dose
For each record, write down the corresponding Index of Bioavailability, % Relative Activity.
Express your answer in %, writing the number without its unit.

For record CN(C)S(=O)(=O)N[C@H](Cc1ccccc1)C(=O)N1CCC[C@H]1C(=O)N[C@H](C=O)CCCNC(=N)N.Cl [Example 12, Me2 NSO2 -D-Phe-Pro-Arg-H.HCl] the listed Index of Bioavailability, % Relative Activity is 26

get_value(item= Cl.N=C(N)NCCC[C@@H](C=O)NC(=O)[C@@H]1CCCN1C(=O)[C@@H](Cc1ccccc1)NS(=O)(=O)c1ccc(F)cc1F [Example 14, 2,4-F-PhSO2 -D-Phe-Pro-Arg-H-HCl] , readout=Index of Bioavailability, % Relative Activity) returns 6

Entry Cl.N=C(N)NCCC[C@@H](C=O)NC(=O)[C@@H]1CCCN1C(=O)[C@@H](Cc1ccccc1)NCC1CCCCC1 [Example 30, cyclohexyl-CH2 -D-phe-pro-Arg-H.HCl] — recorded Index of Bioavailability, % Relative Activity = 1

---

Consider the following compounds; for each one, report its Enzyme Kass, Xa.
- system.name: factor Xa (Homo sapiens)
- Construct: Human factors X, Xa, IXa, XIa, and xIIa are purchased from Enzyme Research Laboratories; purchased Enzyme Research Laboratories, South Bend, Ind
- Sequence (P00742 235-488 limits assumed): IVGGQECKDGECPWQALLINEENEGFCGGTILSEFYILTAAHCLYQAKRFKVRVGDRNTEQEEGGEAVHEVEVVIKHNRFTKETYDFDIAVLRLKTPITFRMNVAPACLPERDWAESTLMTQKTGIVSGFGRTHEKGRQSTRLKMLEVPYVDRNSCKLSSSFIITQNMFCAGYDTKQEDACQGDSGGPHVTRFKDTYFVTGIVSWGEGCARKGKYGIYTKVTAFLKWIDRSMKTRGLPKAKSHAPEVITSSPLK
- Sequence (P00742 41-179 partner limits assumed): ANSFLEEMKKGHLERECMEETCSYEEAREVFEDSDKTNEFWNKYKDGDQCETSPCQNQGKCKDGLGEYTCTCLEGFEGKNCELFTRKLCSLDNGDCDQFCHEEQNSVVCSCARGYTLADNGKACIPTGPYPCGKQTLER
- assay.explanation: Serine protease inhibition, factor Xa (chromogenic substrate), Kass
- Type: biochemical
- conditions: substrate N-Benzoyl-Ile-Glu-Gly-Arg-p-nitroanilide
Quick reminder: number only, in L/mol × 10^6, skip the unit.

So for CCS(=O)(=O)N[C@@H](C(=O)N1CCC[C@H]1C(=O)N[C@H](C=O)CCCNC(=N)N)C1CCCCC1.Cl [Example 22, EtSO2 -D-Chg-Pro-Arg-H.HCl] , the logged Enzyme Kass, Xa turned out to be 24

Lookup result for Cl.N=C(N)NCCC[C@@H](C=O)NC(=O)[C@@H]1CCCN1C(=O)[C@@H](Cc1ccccc1)NCC(=O)O [Example 35, HOOCCH2 -D-Phe-Pro-ArgH.HCl] ; measured Enzyme Kass, Xa: 3.3

Entry under test: CCNC(=O)N[C@H](Cc1ccccc1)C(=O)N1CCC[C@H]1C(=O)N[C@H](C=O)CCCN=C(N)N.Cl [Example 32, EtNHCO-D-Phe-Pro-Arg-H.HCl] . Its Enzyme Kass, Xa was 0.21

get_value(item= CCOC(=O)N[C@H](Cc1ccccc1)C(=O)N1CCC[C@H]1C(=O)N[C@H](C=O)CCCNC(=N)N.Cl [Example 33, EtOCO-D-Phe-Pro-Arg-H.HCl] , readout=Enzyme Kass, Xa) returns 2.3

---

- system.name: Bovine trypsin (Bos taurus, UniProt P00760)
- Construct: Bovine trypsin is purchased from Worthington Biochemicals, Freehold, N.J; purchased Worthington Biochemicals, Freehold, N.J
- assay.explanation: Serine protease inhibition, trypsin (chromogenic substrate), Kass
- Format: biochemical
- conditions: substrate N-Benzoyl-Phe-Val-Arg-p-nitroanilide
Non-standard residues stand in square brackets, D forms with d. Residues, ends and D or L forms follow the SMILES beside them. dCha = N[C@H](CC1CCCCC1)C(=O)O
Exercise: state measured Enzyme Kass, Trypsin for each of the compounds provided.

Summary for this compound, CCCS(=O)(=O)N[C@H](Cc1ccccc1)C(=O)N1CCC[C@H]1C(=O)N[C@H](C=O)CCCNC(=N)N.Cl [Example 9, n-Pr-SO2 -D-Phe-Pro-Arg-H.HCl] : Enzyme Kass, Trypsin is 480 L/mol × 10^6

Per the records, this compound ( Cl.N=C(N)NCCC[C@@H](C=O)NC(=O)[C@@H]1CCCN1C(=O)[C@@H](Cc1ccccc1)NS(=O)(=O)c1ccc(F)cc1F [Example 14, 2,4-F-PhSO2 -D-Phe-Pro-Arg-H-HCl] ) has Enzyme Kass, Trypsin equal to 160 L/mol × 10^6

Form field Enzyme Kass, Trypsin, entry CCS(=O)(=O)N[C@@H](C(=O)N1CCC[C@H]1C(=O)N[C@H](C=O)CCCNC(=N)N)c1ccccc1.Cl [Example 20, EtSO2 -D-Phg-Pro-Arg-H.HCl] : 160 L/mol × 10^6

Lab book: Enzyme Kass, Trypsin of Cl.Cn1c(C(=O)NC(CC2CCCCC2)C(=O)N2CCCC2C(=O)NC(C=O)CCCN=C(N)N)cc2ccccc21 [Example 5, NMI-D-Cha-Pro-Arg-H.HCl] noted as 7.9 L/mol × 10^6

CCS(=O)(=O)N[C@H](CC1CCCCC1)C(=O)N1CCC[C@H]1C(=O)N[C@H](C=O)CCCNC(=N)N.Cl [Example 21, EtSO2 -D-Cha-Pro-Arg-H.HCl] has a reported Enzyme Kass, Trypsin of 200 L/mol × 10^6

The recorded Enzyme Kass, Trypsin for entry Cl.Cn1c(C(=O)NC(Cc2ccccc2)C(=O)N2CCCC2C(=O)NC(C=O)CCCN=C(N)N)cc2ccccc21 [Example 1, NMI-D-Phe-Pro-Arg-H.HCl] equals 120 L/mol × 10^6

So, Cl.NC(N)=NCCCC(C=O)NC(=O)C1CCCN1C(=O)C(Cc1ccccc1)NC(=O)c1ccc2ccccc2n1 (stereo not drawn) ? Its Enzyme Kass, Trypsin was 22 L/mol × 10^6

Quick note, Enzyme Kass, Trypsin for Cl.N=C(N)NCCC[C@@H](C=O)NC(=O)[C@@H]1CCCN1C(=O)[C@@H](Cc1ccccc1)NC(=O)Cc1ccccc1 [Example 26, PhCH2 CO-D-Phe-Pro-Arg-H.HCl] landed at 14 L/mol × 10^6

Entry CC(=O)N[C@H](CC1CCCCC1)C(=O)N1CCC[C@H]1C(=O)N[C@H](C=O)CCCNC(=N)N.Cl [Example 28, Ac-D-Cha-Pro-Arg-H.HCl] (Ac-[dCha]-Pro-Arg-aldehyde) — recorded Enzyme Kass, Trypsin = 12 L/mol × 10^6

Entry Cl.N=C(N)NCCC[C@@H](C=O)NC(=O)[C@@H]1CCCN1C(=O)[C@@H](Cc1ccccc1)NS(=O)(=O)c1ccccc1 [Example 13, PhSO2 -D-Phe-Pro-Arg-H.HCl] , Enzyme Kass, Trypsin reported as 180 L/mol × 10^6

The recorded Enzyme Kass, Trypsin for entry Cl.NC(N)=NCCCC(C=O)NC(=O)C1CCCN1C(=O)C(CC1CCCCC1)NC(=O)c1ccc2ccccc2n1 (stereo not drawn) equals 2.5 L/mol × 10^6

// field: Enzyme Kass, Trypsin; key: CCOC(=O)N[C@H](CC1CCCCC1)C(=O)N1CCC[C@H]1C(=O)N[C@H](C=O)CCCN=C(N)N.Cl [Example 34, EtOCO-D-Cha-Pro-Arg-H.HCl] ; value = 140 L/mol × 10^6

// recorded Enzyme Kass, Trypsin for Cl.N=C(N)NCCC[C@@H](C=O)NC(=O)[C@@H]1CCCN1C(=O)[C@@H](Cc1ccccc1)NS(=O)(=O)c1ccc(C(=O)O)cc1 [Example 18, 4-(HO2 C)-C6 H4 SO2 -D-Phe-Pro-Arg-H.HCl] : 43 L/mol × 10^6

Consider CC(=O)N[C@H](Cc1ccccc1)C(=O)N1CCC[C@H]1C(=O)N[C@H](C=O)CCCN=C(N)N.Cl [Example 23, Ac-D-Phe-Pro-Arg-H.HCl] . Its measured Enzyme Kass, Trypsin is 14 L/mol × 10^6

Lookup result for Cl.N=C(N)NCCC[C@@H](C=O)NC(=O)[C@@H]1CCCN1C(=O)[C@@H](Cc1ccccc1)NCC1CCCCC1 [Example 30, cyclohexyl-CH2 -D-phe-pro-Arg-H.HCl] ; measured Enzyme Kass, Trypsin: 69 L/mol × 10^6
